B1: glmS ribozyme (parent)
chain: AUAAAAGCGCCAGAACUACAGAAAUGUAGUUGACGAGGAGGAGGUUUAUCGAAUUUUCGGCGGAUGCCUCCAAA

Variants of: B1
Test: self-cleavage kobs at 40 uM GlcN6P; higher = faster cleavage; RNA array
Details: with glucosamine-6-phosphate
Variants at the floor of the assay were thinned out.
Answer each item with its documented self-cleavage kobs at 40 uM GlcN6P.

INSERT INTO assay_data (monomer_sequence, reported) VALUES
  ('AUAAAAGCGCCAAAACUACAGAAAUGUAGUUGACGAGGAGGAGGUUUAUAGAAUUUUCGGCGGAUGCCGCCAAA', '4.48e-05 s⁻¹'),
  ('AUAAAAGCGCCAGAACUACAGAAAUGUAGUUGACGAGGAGGAGGUUUAUCCAAUUUUCGUCGGUUGCCUCCAAA', '< 1e-05 s⁻¹'),
  ('AUAAAAGCGCCAGAACUACAGAAAUGUAGUUGACGAGGUGGAGGUUUAUCGAAUUUUCGGCGGGUGCCUCCAAA', '0.000447 s⁻¹'),
  ('AUAAAAGCGCCAGAACUACAGAAAUGUAGUUGACGAGGAGGAGGGUUAUCGAAUUUUUGGCGGAUGCCUCCAAA', '< 1e-05 s⁻¹');

Report self-cleavage kobs at 40 uM GlcN6P for each item below.
1. AUAAAAGCGCCAGAACUACAGAAAUGUAGUUGACGAGGAGGAGGUUUACGGAAUUUUCGGCGGAUGCCUCCAAA
2. AUAAAAGCGUCACAACUACAGAAAUGUAGUUGACGCGGAGGAGGUUUAUCGAAUUUUCGGCGGAUGCCUCCAAA
3. AUAAAAGCGCCAGAACUACAGAAAUGUAGUUGACGAGCAGGAGGUUUAUCGCAUUUUCGGCGGAUGCCUCCAAA
4. AUAAAAGCGCCAGAACUACAGAAAUGUAGUUGAAGAGGAGGAGGUUUAUUGAAUUUUCGGCGGAUGCCUCCAAA
5. AUAAAAGCGCCAGAACUACAGAAAUGUAGUUGACGAGGUGGAGGUUUAUCGAAUAUUCGGCGGAUGCCUCCAAA
6. AUAAAAUCGCCAGAACUACAGAAAUGUAGUUGACGAGGAGGAGGGUUAUCGAAUUUUCGGCGGAUGCCUCAAAA

Out:
["< 1e-05 s⁻¹", "< 1e-05 s⁻¹", "< 1e-05 s⁻¹", "< 1e-05 s⁻¹", "0.000396 s⁻¹", "< 1e-05 s⁻¹"]
